These entries and their values trace back to patent US11844802B2.

System: BMP-specific Smad1-driven 9×GCCG reporter
test_method_notes: BMP-2 induced Smad1-driven dual-luciferase reporter assay in C2C12 cells
Format: cell-based, Mouse
recorded_conditions: Mus musculus, C2C12; BMP-2 1 ng/ml; calculated from the Hill plot; read-out: EC50, potentiation of BMP-2 luciferase reporter activity
result_type: EC50 (nM)

[[record]]
compound = "C=Cc1nc(N)nc(N)n1 [Compound 12, 2,4-diamino-6-vinyl-1,3,5-triazine]"
numeric_result = 2600

